Attribution: ChEMBL document CHEMBL1153722

- Organism: Rattus norvegicus
- measurement.notes: Inhibition of rat recombinant Rab geranylgeranyltransferase at 100 uM in presence of canine Rab7 and rat REP1 NBD-FPP based continuous fluorimetric assay
Peptide text beside a SMILES is read from it. * marks the point of attachment. Palmitoyl = CCCCCCCCCCCCCCCC(=O)*; Cbz = O=C(OCc1ccccc1)*
Parameter class (string): assigned from measured inhibition. Ranges: low value: < 80%; medium value: ≥ 80% and < 90%; high value: ≥ 90%

Use the examples below as a reference point.
- compound: "COc1ccc(C[C@@H](C(=O)N(C)[C@@H](Cc2ccccc2)C(=O)N2CCC(C(N)=O)CC2)N(C)C(=O)[C@@H](Cc2ccc(O)cc2)NC(=O)OCc2ccc([N+](=O)[O-])cc2)cc1"
  label.value: "low value"
- compound: "C=CCCCOC(=O)[C@H](CCC(N)=O)NC(=O)[C@H](Cc1ccccc1)NC(=O)[C@@H](NC(=O)/C=C/c1ccccc1)[C@@H](C)O"
  label.value: "high value"

Prompt: In plain terms, what class is CCCCCCCCCCCOc1ccc(C(=O)N[C@@H](Cc2ccc(O)cc2)C(=O)N[C@@H](Cc2ccc(O)cc2)C(=O)N[C@@H](Cc2ccc(O)cc2)C(=O)N(C)CCc2ccccn2)cc1 ?
Completion: medium value

Prompt: In plain terms, what class is CCCCCCCCCCCCCCCC(=O)N[C@@H](Cc1ccc(O)cc1)C(=O)N[C@@H](Cc1ccc(O)cc1)C(=O)N[C@@H](Cc1ccc(O)cc1)C(=O)OC (Palmitoyl-Tyr-Tyr-Tyr-OMe) ?
Completion: low value

Prompt: In plain terms, what class is CC(C)[C@H](NC(=O)c1coc(-c2ccccc2)n1)C(=O)NCC(=O)N[C@@H](Cc1c[nH]cn1)C(=O)Nc1ccc(F)cc1F ?
Completion: low value

Prompt: In plain terms, what class is CCCCCCCCCCCOc1ccc(C(=O)N[C@@H](Cc2ccc(O)cc2)C(=O)N[C@@H](Cc2ccc(O)cc2)C(=O)N[C@@H](Cc2c[nH]cn2)C(=O)O)cc1 ?
Completion: high value

Prompt: In plain terms, what class is O=C(N[C@@H](Cc1c[nH]cn1)C(=O)N[C@@H](Cc1ccc(O)cc1)C(=O)N[C@@H](Cc1ccccc1)C(=O)O)OCc1ccccc1 (Cbz-His-Tyr-Phe-OH) ?
Completion: low value

Prompt: In plain terms, what class is CCCCCCCCCCC(=O)N[C@@H](Cc1c[nH]cn1)C(=O)N[C@@H](Cc1ccccc1)C(=O)N[C@@H](Cc1ccc(O)cc1)C(=O)N(C)OC ?
Completion: low value

Prompt: In plain terms, what class is CC[C@H](C)[C@H](NC(=O)c1ccc(-c2ccccc2)cc1)C(=O)N[C@@H](C(=O)N[C@@H](CCC(N)=O)C(=O)Nc1cccc(Br)n1)C(C)C ?
Completion: high value

###

- Species on record: Rattus norvegicus
- measurement.notes: Inhibition of rat recombinant Rab geranylgeranyltransferase at 100 uM in presence of canine Rab7 and rat REP1 NBD-FPP based continuous fluorimetric assay
# inhibition annotations
Write down the numeric answer in % and omit the unit.

Some solved entries appear below for comparison.
- compound: "O=C(CNC(=O)[C@H](Cc1ccc(O)cc1)NC(=O)CCc1ccc(F)cc1)N[C@@H](Cc1ccc(O)cc1)C(=O)O"
  endpoint: "inhibition"
  observed.value: 86
- compound: "O=C(/C=C/c1ccc(F)cc1)N[C@@H](CO)C(=O)N[C@@H](Cc1ccccc1)C(=O)N[C@@H](CO)C(=O)N1CCOCC1"
  endpoint: "inhibition"
  observed.value: 75
- compound: "O=C(CNC(=O)c1csc(-c2ccc(C(F)(F)F)cc2)n1)N[C@@H](Cc1ccccc1)C(=O)N[C@@H](Cc1c[nH]cn1)C(=O)O"
  endpoint: "inhibition"
  observed.value: 137
- compound: "CON(C)C(=O)[C@H](CCC(N)=O)NC(=O)[C@H](Cc1ccccc1)NC(=O)[C@H](C)NC(=O)CCc1ccccc1"
  endpoint: "inhibition"
  observed.value: 112
- compound: "O=C(CNC(=O)[C@H](Cc1cn(C(c2ccccc2)(c2ccccc2)c2ccccc2)cn1)NC(=O)c1coc(-c2ccccc2)n1)N[C@@H](Cc1c[nH]cn1)C(=O)O"
  endpoint: "inhibition"
  observed.value: 86

Form field inhibition, entry O=C(CNC(=O)[C@H](Cc1ccc(O)cc1)NC(=O)c1ccc(F)cc1)N[C@@H](Cc1ccc(O)cc1)C(=O)NC1CCCCC1 : 74

Form field inhibition, entry COC(=O)[C@H](CC(C)C)NC(=O)[C@H](CO)NC(=O)[C@H](Cc1ccccc1)NC(=O)/C=C/c1ccc(F)cc1 : 57

Form field inhibition, entry CCCCCCCCCCCOc1ccc(C(=O)N[C@@H](Cc2c[nH]cn2)C(=O)N[C@@H](Cc2c[nH]cn2)C(=O)N[C@@H](Cc2c[nH]cn2)C(=O)OC)cc1 : 87

###

# inhibition annotations
- Species on record: Rattus norvegicus
- measurement.notes: Inhibition of rat recombinant Rab geranylgeranyltransferase at 100 uM in presence of canine Rab7 and rat REP1 NBD-FPP based continuous fluorimetric assay
Peptide text beside a SMILES is read from it. * marks the point of attachment. Hydrocinnamoyl = O=C(CCc1ccccc1)*; Morpholide = C1CN(*)CCO1; NHNH2 = NN*
Write down the numeric answer in % and omit the unit.

Some solved entries appear below for comparison.
- molecule: "CC(C)C[C@H](NC(=O)[C@H](COC(C)(C)C)NC(=O)[C@H](Cc1ccccc1)NC(=O)/C=C/c1ccc(F)cc1)C(=O)Nc1nccs1"
  observed.value: 112
- molecule: "O=C(CCc1ccccc1)N[C@@H](CO)C(=O)N[C@@H](Cc1ccccc1)C(=O)N[C@@H](CO)C(=O)N1CCOCC1 (Hydrocinnamoyl-Ser-Phe-Ser-Morpholide)"
  observed.value: 94
- molecule: "O=C(N[C@@H](Cc1ccc(O)cc1)C(=O)N[C@@H](Cc1ccc(O)cc1)C(=O)N[C@@H](Cc1ccc(O)cc1)C(=O)NC1CCCCC1)c1ccc(F)cc1F"
  observed.value: 88
- molecule: "CCCCCCCCCCC(=O)N[C@@H](Cc1c[nH]cn1)C(=O)N[C@@H](Cc1c[nH]cn1)C(=O)N[C@@H](CO)C(=O)N(C)CCc1ccccn1"
  observed.value: 47
- molecule: "NNC(=O)[C@H](CCC(N)=O)NC(=O)[C@H](Cc1ccccc1)NC(=O)[C@H](CO)NC(=O)CCc1ccccc1 (Hydrocinnamoyl-Ser-Phe-Gln-NHNH2)"
  observed.value: 104

Turning now to a further record.
Form field inhibition, entry O=C(CNC(=O)[C@H](Cc1ccc(O)cc1)NC(=O)c1coc(-c2ccccc2)n1)N[C@@H](Cc1ccc(O)cc1)C(=O)O : 58

###

- Species: Rattus norvegicus
- measurement.notes: Inhibition of rat recombinant Rab geranylgeranyltransferase at 100 uM in presence of canine Rab7 and rat REP1 NBD-FPP based continuous fluorimetric assay
Peptide text beside a SMILES is read from it. * marks the point of attachment. Hydrocinnamoyl = O=C(CCc1ccccc1)*; Palmitoyl = CCCCCCCCCCCCCCCC(=O)*; Undecanoyl = CCCCCCCCCCC(=O)*; NHBn = c1ccc(CN*)cc1; NHOH = ON*
endpoint: inhibition (%)
Write down the numeric answer in % and omit the unit.

- compound: "O=C(N[C@@H](Cc1ccc(O)cc1)C(=O)N[C@@H](Cc1ccc(O)cc1)C(=O)N[C@@H](Cc1ccc(O)cc1)C(=O)Nc1ccc(F)cc1F)c1ccc(F)cc1F"
  endpoint: "inhibition"
  observed.value: 97

Form field inhibition, entry CCCCCCCCCCCCCCCC(=O)N[C@@H](Cc1ccc(O)cc1)C(=O)N[C@@H](Cc1ccc(O)cc1)C(=O)N[C@@H](Cc1ccc(O)cc1)C(=O)NCCCn1ccnc1 : 85

Form field inhibition, entry CCCCCCCCCCC(=O)N[C@@H](Cc1c[nH]cn1)C(=O)N[C@@H](Cc1c[nH]cn1)C(=O)N[C@@H](CO)C(=O)NO (Undecanoyl-His-His-Ser-{NHOH}) : 78

Form field inhibition, entry O=C(CCc1ccccc1)N[C@@H](CO)C(=O)NCC(=O)N[C@@H](CO)C(=O)NCc1ccccc1 (Hydrocinnamoyl-Ser-Gly-Ser-NHBn) : 90

Form field inhibition, entry CCCCCCCCCCCCCCCC(=O)N[C@@H](Cc1ccc(O)cc1)C(=O)N[C@@H](Cc1ccc(O)cc1)C(=O)N[C@@H](Cc1ccc(O)cc1)C(=O)O (Palmitoyl-Tyr-Tyr-Tyr-OH) : 93

Form field inhibition, entry O=C(N[C@@H](Cc1ccc(O)cc1)C(=O)N[C@@H](Cc1ccc(O)cc1)C(=O)N[C@@H](Cc1ccc(O)cc1)C(=O)Nc1nccs1)c1ccc(F)cc1F : 78

###

# inhibition annotations
- Organism: Rattus norvegicus
- measurement.notes: Inhibition of rat recombinant Rab geranylgeranyltransferase at 100 uM in presence of canine Rab7 and rat REP1 NBD-FPP based continuous fluorimetric assay
Reply with a number, then the unit it belongs to.

Some solved entries appear below for comparison.
- substance.smiles: "CCCCCCCCCCCC(=O)N[C@@H](Cc1ccc(O)cc1)C(=O)N[C@@H](Cc1c[nH]cn1)C(=O)N[C@@H](Cc1c[nH]cn1)C(=O)N(C)CCc1ccccn1"
  observed.value: "54%"
- substance.smiles: "COC(=O)[C@H](CO)NC(=O)CNC(=O)[C@H](Cc1ccccc1)NC(=O)c1csc(-c2cccs2)n1"
  observed.value: "123%"
- substance.smiles: "CON(C)C(=O)[C@H](Cc1ccc(O)cc1)NC(=O)CNC(=O)[C@H](Cc1ccc(O)cc1)NC(=O)c1ccc(F)cc1"
  observed.value: "84%"
- substance.smiles: "COC(=O)[C@H](Cc1ccc(O)cc1)NC(=O)CNC(=O)[C@H](Cc1ccc(O)cc1)NC(=O)CCc1ccc(F)cc1"
  observed.value: "90%"
- substance.smiles: "CON(C)C(=O)[C@H](CC(C)C)NC(=O)[C@H](COC(C)(C)C)NC(=O)[C@H](Cc1ccccc1)NC(=O)/C=C/c1ccc(F)cc1"
  observed.value: "94%"

Form field inhibition, entry O=C(CNC(=O)[C@H](Cc1ccccc1)NC(=O)c1csc(-c2cccs2)n1)N[C@@H](CO)C(=O)Nc1nccs1 : 124%

Form field inhibition, entry C[C@H](NC(=O)[C@@H](NC(=O)c1ccc(-c2ccccc2)cc1)[C@@H](C)O)C(=O)N[C@@H](CCC(N)=O)C(=O)Nc1cccc(Br)n1 : 77%

Form field inhibition, entry NC(=O)CC[C@H](NC(=O)[C@H](Cc1ccccc1)NC(=O)[C@H](CO)NC(=O)CCc1ccccc1)C(=O)Nc1ccc(F)cc1 : 88%

Form field inhibition, entry O=C(/C=C/c1ccc(F)cc1)N[C@@H](CO)C(=O)N[C@@H](Cc1ccccc1)C(=O)N[C@@H](CO)C(=O)NCc1ccccc1 : 100%

Form field inhibition, entry CCCCCCCCCCCOc1ccc(C(=O)N[C@@H](Cc2c[nH]cn2)C(=O)N[C@@H](Cc2ccc(O)cc2)C(=O)N[C@@H](Cc2ccccc2)C(=O)N(C)OC)cc1 : 65%

Form field inhibition, entry O=C(/C=C/c1ccc(F)cc1)N[C@@H](CO)C(=O)N[C@@H](Cc1ccccc1)C(=O)N[C@@H](CO)C(=O)NC1CCCCC1 : 86%

Form field inhibition, entry NCCOC(=O)[C@H](Cc1ccc(O)cc1)NC(=O)[C@H](Cc1ccc(O)cc1)NC(=O)[C@H](Cc1ccc(O)cc1)NC(=O)c1ccc(F)cc1F : 97%

Form field inhibition, entry O=C(CNC(=O)c1coc(-c2ccccc2)n1)N[C@@H](Cc1c[nH]cn1)C(=O)N[C@@H](Cc1ccccc1)C(=O)O : 84%

Form field inhibition, entry CON(C)C(=O)[C@H](CCC(N)=O)NC(=O)[C@H](Cc1ccccc1)NC(=O)[C@@H](NC(=O)/C=C/c1ccccc1)[C@@H](C)O : 80%
